pIC50: −log10 of the molar value.
Assay system Tyrosine-protein kinase JAK2 (Homo sapiens); read-out recorded as pIC50.
endpoint: pIC50

>  <compound>
Cc1[nH]nc2[nH]c(=O)cc([C@H]3CC[C@H](NC(=O)[C@@H]4CC4(F)F)CC3)c12

>  <endpoint>
pIC50

>  <result>
< 5.15

$$$$
>  <compound>
Cc1[nH]nc2[nH]c(=O)cc([C@H]3CC[C@H](CC(=O)N4CCC(C)(C)CC4)CC3)c12

>  <endpoint>
pIC50

>  <result>
5.47

$$$$
>  <compound>
Cc1[nH]nc2[nH]c(=O)cc([C@H]3CC[C@H](CC(=O)N4CCC(C#N)C4)CC3)c12 (mixture of isomers)

>  <endpoint>
pIC50

>  <result>
< 4.35

$$$$
>  <compound>
Cc1[nH]nc2[nH]c(=O)cc(C3CC4CCC3CC4)c12 (racemic)

>  <endpoint>
pIC50

>  <result>
5.04

$$$$
>  <compound>
Cc1[nH]nc2[nH]c(=O)c(CO)c(C3CCCCC3)c12

>  <endpoint>
pIC50

>  <result>
< 4.40

$$$$
>  <compound>
Cc1[nH]nc2[nH]c(=O)cc([C@H]3CC[C@H](N)CC3)c12

>  <endpoint>
pIC50

>  <result>
< 4.40

$$$$
>  <compound>
Cc1[nH]nc2[nH]c(=O)cc([C@@H]3C[C@H]4CC[C@@H]3C4)c12 (racemic)

>  <endpoint>
pIC50

>  <result>
< 4.40

$$$$
>  <compound>
Cc1[nH]nc2[nH]c(=O)c(CCO)c(C3CCCCC3)c12

>  <endpoint>
pIC50

>  <result>
< 4.40

$$$$
>  <compound>
Cc1[nH]nc2[nH]c(=O)cc([C@H]3C[C@H]4CC[C@@H]3C4)c12 (racemic)

>  <endpoint>
pIC50

>  <result>
4.66

$$$$

###

Assay: Drug absorption in rat at […], po
Assay type: ADME, organism-based
Conditions: in vivo, read-out: Fabs
endpoint: Fa (%)

>  <compound>
Cc1[nH]nc2[nH]c(=O)cc([C@H]3C[C@H]4C[C@@H]3C[C@@H]4CC#N)c12

>  <endpoint>
Fa

>  <numeric result>
41

$$$$

###

The reader will find IC50 measurements below, all made with UniProt P23458.

>  <compound>
Cc1[nH]nc2[nH]c(=O)cc([C@H]3CC[C@H](CCC#N)CC3)c12

>  <value qualifier>
=

>  <IC50 / µM>
1.2

$$$$
>  <compound>
O=c1cc(C2CCCCC2)c2c[nH]nc2[nH]1

>  <value qualifier>
>

>  <IC50 / µM>
50

$$$$
>  <compound>
Cc1[nH]nc2[nH]c(=O)cc([C@H]3CC[C@H](CC(=O)N4CCC(c5ccccc5)C4)CC3)c12 (mixture of isomers)

>  <value qualifier>
=

>  <IC50 / µM>
0.11

$$$$
>  <compound>
Cc1[nH]nc2[nH]c(=O)c(C#N)c(C3CCCCC3)c12

>  <value qualifier>
=

>  <IC50 / µM>
20

$$$$
>  <compound>
Cc1[nH]nc2[nH]c(=O)c(CO)c(C3CCCCC3)c12

>  <value qualifier>
=

>  <IC50 / µM>
4.8

$$$$

###

Form: system (Tyrosine-protein kinase JAK1 (Homo sapiens, UniProt P23458)), quantity (pIC50), values below.
pIC50: −log10 of the molar value.
endpoint: pIC50

>  <compound>
O=c1cc(C2CCCCC2)c2c(C3CC3)[nH]nc2[nH]1

>  <numeric result>
6.30

$$$$
>  <compound>
Cc1[nH]nc2[nH]c(=O)cc([C@H]3CC[C@H](O)CC3)c12

>  <numeric result>
6.31

$$$$
>  <compound>
Cc1[nH]nc2[nH]c(=O)cc([C@H]3CC[C@H](NS(=O)(=O)C4CC4)CC3)c12

>  <numeric result>
6.40

$$$$
>  <compound>
Cc1[nH]nc2[nH]c(=O)cc([C@H]3CC[C@H](N)CC3)c12

>  <numeric result>
6.09

$$$$
>  <compound>
Cc1[nH]nc2[nH]c(=O)c(CO)c(C3CCCCC3)c12

>  <numeric result>
6.85

$$$$

# credit: ChEMBL document CHEMBL4610114
